molecular target: KCNQ2 potassium channel (Kv7.2) (Homo sapiens, UniProt O43526); assay: whole-cell voltage clamp in CHO cells, with VSD mutagenesis
Sequence (O43526 whole entry): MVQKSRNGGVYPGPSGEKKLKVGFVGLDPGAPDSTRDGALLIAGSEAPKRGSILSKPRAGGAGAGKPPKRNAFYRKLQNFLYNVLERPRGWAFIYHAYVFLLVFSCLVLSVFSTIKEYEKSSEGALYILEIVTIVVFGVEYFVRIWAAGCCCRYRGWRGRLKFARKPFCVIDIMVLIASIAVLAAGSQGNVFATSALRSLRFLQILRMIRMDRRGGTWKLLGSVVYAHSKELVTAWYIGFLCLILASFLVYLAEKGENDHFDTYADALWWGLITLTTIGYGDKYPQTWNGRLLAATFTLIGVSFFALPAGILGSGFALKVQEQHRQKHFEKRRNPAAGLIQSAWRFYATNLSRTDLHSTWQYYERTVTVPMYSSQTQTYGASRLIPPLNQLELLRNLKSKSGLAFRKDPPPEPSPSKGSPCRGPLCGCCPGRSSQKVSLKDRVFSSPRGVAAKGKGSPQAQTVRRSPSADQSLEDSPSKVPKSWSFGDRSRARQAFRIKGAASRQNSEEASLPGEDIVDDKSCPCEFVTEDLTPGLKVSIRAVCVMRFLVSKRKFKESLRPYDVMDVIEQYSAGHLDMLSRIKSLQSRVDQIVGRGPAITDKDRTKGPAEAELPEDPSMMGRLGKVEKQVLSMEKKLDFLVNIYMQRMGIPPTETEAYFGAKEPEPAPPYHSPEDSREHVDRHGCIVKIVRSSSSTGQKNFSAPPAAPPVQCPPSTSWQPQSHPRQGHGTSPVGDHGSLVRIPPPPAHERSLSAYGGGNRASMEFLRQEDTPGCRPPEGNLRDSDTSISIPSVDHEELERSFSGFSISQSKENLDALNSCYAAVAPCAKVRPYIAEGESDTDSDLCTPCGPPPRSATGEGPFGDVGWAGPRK
measurement name: pEC50
Notebook: values listed as pEC50 are -log10 of the concentration (mol/L).

Please look up its pEC50: O=C(Nc1ccc(Cl)nc1)c1ccc(F)cc1
5.55
